target_under_test: S. aureus alpha-toxin (Staphylococcus aureus, UniProt P09616)
Sequence (P09616 27-319 limits assumed): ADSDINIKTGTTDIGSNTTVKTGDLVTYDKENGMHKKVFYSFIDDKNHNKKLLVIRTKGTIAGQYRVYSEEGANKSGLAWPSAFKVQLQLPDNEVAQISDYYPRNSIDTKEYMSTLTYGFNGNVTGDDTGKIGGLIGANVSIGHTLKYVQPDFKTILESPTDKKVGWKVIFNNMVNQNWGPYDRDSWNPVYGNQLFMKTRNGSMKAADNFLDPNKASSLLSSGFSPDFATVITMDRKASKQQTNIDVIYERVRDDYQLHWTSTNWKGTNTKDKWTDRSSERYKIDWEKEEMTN
experimental_readout: Kd

For each listed entry, give its Kd.
1. DF1.1 variant HCDR3-R9A (antibody, V domains shown) VH: QVQLVQSGAEVKKPGSSVKVSCKTSGGTFNNVAINWVRQAPGQGLEWMGGIIPGLDTPNYAQKFQGRVTITADKSTTSTYLELSSLRSDDTAVYYCAREMEVSGAWRPTEAFEIWGQGTMVTVSS VL: ETTLTQSPGTLSLSPGERATLSCRASQTISNNFVAWYQQKPGQAPRLLIYGASTRATGIPDRFSGSGSGTDFTLTISSLEPEDFAVYYCQQYGSSPYTFGQGTKVDIK
2. DF1.1 variant HCDR3-S7R (antibody, V domains shown) VH: QVQLVQSGAEVKKPGSSVKVSCKTSGGTFNNVAINWVRQAPGQGLEWMGGIIPGLDTPNYAQKFQGRVTITADKSTTSTYLELSSLRSDDTAVYYCAREMEVRGRWRPTEAFEIWGQGTMVTVSS VL: ETTLTQSPGTLSLSPGERATLSCRASQTISNNFVAWYQQKPGQAPRLLIYGASTRATGIPDRFSGSGSGTDFTLTISSLEPEDFAVYYCQQYGSSPYTFGQGTKVDIK
3. DF1.1 variant LCDR3-G4R (antibody, V domains shown) VH: QVQLVQSGAEVKKPGSSVKVSCKTSGGTFNNVAINWVRQAPGQGLEWMGGIIPGLDTPNYAQKFQGRVTITADKSTTSTYLELSSLRSDDTAVYYCAREMEVSGRWRPTEAFEIWGQGTMVTVSS VL: ETTLTQSPGTLSLSPGERATLSCRASQTISNNFVAWYQQKPGQAPRLLIYGASTRATGIPDRFSGSGSGTDFTLTISSLEPEDFAVYYCQQYRSSPYTFGQGTKVDIK
4. DF1.1 variant LCDR3-Q1A (antibody, V domains shown) VH: QVQLVQSGAEVKKPGSSVKVSCKTSGGTFNNVAINWVRQAPGQGLEWMGGIIPGLDTPNYAQKFQGRVTITADKSTTSTYLELSSLRSDDTAVYYCAREMEVSGRWRPTEAFEIWGQGTMVTVSS VL: ETTLTQSPGTLSLSPGERATLSCRASQTISNNFVAWYQQKPGQAPRLLIYGASTRATGIPDRFSGSGSGTDFTLTISSLEPEDFAVYYCAQYGSSPYTFGQGTKVDIK

stdout:
["0.4 nM", "0.3 nM", "< 0.14 nM", "< 0.14 nM"]
